From: the supplement of paper PMC11246515

Items are presented alongside their recorded total protein half-life in vivo.
- EXPERIMENTAL DETAILS: total protein half-life in vivo (active degradation + dilution); higher = more stable protein
- CONDITION CONTEXT: wild type E. coli NCM3722; growth: C-lim chemostat; doubling time 3 h
Answer with the figure and its unit, nothing else.

[
  {
    "RESIDUE SEQUENCE": "MRLVQLSRHSIAFPSPEGALREPNGLLALGGDLSPARLLMAYQRGIFPWFSPGDPILWWSPDPRAVLWPESLHISRSMKRFHKRSPYRVTMNYAFGQVIEGCASDREEGTWITRGVVEAYHRLHELGHAHSIEVWREDELVGGMYGVAQGTLFCGESMFSRMENASKTALLVFCEEFIGHGGKLIDCQVLNDHTASLGACEIPRRDYLNYLNQMRLGRLPNNFWVPRCLFSPQE [P0A8P1]",
    "ASSAY READOUT": "total protein half-life in vivo",
    "ENDPOINT VALUE": "0.705 h"
  }
]

Attention now turns to another entry.
For the sequence shown here, MSEIKDVIVQGLWKNNSALVQLLGLCPLLAVTSTATNALGLGLATTLVLTLTNLTISTLRHWTPAEIRIPIYVMIIASVVSAVQMLINAYAFGLYQSLGIFIPLIVTNCIVVGRAEAFAAKKGPALSALDGFSIGMGATCAMFVLGSLREIIGNGTLFDGADALLGSWAKVLRVEIFHTDSPFLLAMLPPGAFIGLGLMLAGKYLIDERMKKRRAEAAAERALPNGETGNV , give the reported total protein half-life in vivo. 2.72 h

----------
- EXPERIMENTAL DETAILS: total protein half-life in vivo (active degradation + dilution); higher = more stable protein
- CONDITION CONTEXT: E. coli NCM3722 delta-lon; growth: N-lim chemostat; doubling time 6 h
Items are presented alongside their recorded total protein half-life in vivo.
Dear colleague, please return just the value in h, with no unit written.

Examples with their reported total protein half-life in vivo follow.
[
  {
    "RESIDUE SEQUENCE": "MPLSAQQLAAQKNLSYVLAEKLAQRILKGEYEPGTILPGEIELGEQFGVSRTAVREAVKTLTAKGMVLPRPRIGTRVMPQSNWNFLDQELLTWWMTEENFHQVIDHFLVMRICLEPQACLLAATVGTAEQKAHLNTLMAEMAALKENFRRERWIEVDMAWHEHIYEMSANPFLTSFASLFHSVYHTYFTSITSDTVIKLDLHQAIVDAIIQSDGDAAFKACQALLRSPDK",
    "ENDPOINT VALUE": 6.07
  },
  {
    "RESIDUE SEQUENCE": "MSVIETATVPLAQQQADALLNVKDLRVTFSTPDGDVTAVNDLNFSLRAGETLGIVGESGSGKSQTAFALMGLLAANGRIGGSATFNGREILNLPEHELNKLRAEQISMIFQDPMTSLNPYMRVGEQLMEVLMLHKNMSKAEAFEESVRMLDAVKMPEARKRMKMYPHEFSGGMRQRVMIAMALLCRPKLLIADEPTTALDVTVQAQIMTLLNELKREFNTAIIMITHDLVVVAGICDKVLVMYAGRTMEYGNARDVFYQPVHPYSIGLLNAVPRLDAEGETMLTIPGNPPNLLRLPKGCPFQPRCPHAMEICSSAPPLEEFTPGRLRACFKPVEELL",
    "ENDPOINT VALUE": 4.81
  }
]

Attention now turns to another entry.
For the sequence shown here, MSKIIATLYAVMDKRPLRALSFVMALLLAGCMFWDPSRFAAKTSELEIWHGLLLMWAVCAGVIHGVGFRPQKVLWQGIFCPLLADIVLIVGLIFFFF [P0AAV0] , give the reported total protein half-life in vivo. 5.39
